measurement protocol: Pharmacokinetics in mouse after p.o. and i.v. administration
Assay type: in vivo
setup conditions: C57BL/6J, mouse, in vivo, po, 10 mg/kg, mouse 10mg/kg p.o.; individual animals 1-3; read-out: Cmax
quantity: Cmax (ng/mL)

- cpd smiles: "CN(C)CCCCn1c(=O)c2c(nc(Oc3cccc(Cl)c3)n2Cc2ccc(Cl)cc2)n(C)c1=O"
  result number: 256

---

measurement protocol: Pharmacokinetics in mouse after p.o. and i.v. administration
Type: in vivo
setup conditions: brain and heart plasma, po, 10 mg/kg; mouse p.o.; read-out: Clast brain/Cmax heart plasma
quantity: Kp at 4 h

- compound: "CN(C)CCCCn1c(=O)c2c(nc(Oc3cccc(Cl)c3)n2Cc2ccc(Cl)cc2)n(C)c1=O [H08]"
  result number: 0.83
